target: human NPFFR1 (hNPFFR1) receptor (Homo sapiens); assay: Human NPFFR1 evaluation using BRET biosensors (antagonist IC50); conditions: hNPFFR1 transiently over-expressed in HEK-293 T cells; BRET signal; stimulation by EC80 RFRP-3
Sequence (Q9GZQ6 whole entry): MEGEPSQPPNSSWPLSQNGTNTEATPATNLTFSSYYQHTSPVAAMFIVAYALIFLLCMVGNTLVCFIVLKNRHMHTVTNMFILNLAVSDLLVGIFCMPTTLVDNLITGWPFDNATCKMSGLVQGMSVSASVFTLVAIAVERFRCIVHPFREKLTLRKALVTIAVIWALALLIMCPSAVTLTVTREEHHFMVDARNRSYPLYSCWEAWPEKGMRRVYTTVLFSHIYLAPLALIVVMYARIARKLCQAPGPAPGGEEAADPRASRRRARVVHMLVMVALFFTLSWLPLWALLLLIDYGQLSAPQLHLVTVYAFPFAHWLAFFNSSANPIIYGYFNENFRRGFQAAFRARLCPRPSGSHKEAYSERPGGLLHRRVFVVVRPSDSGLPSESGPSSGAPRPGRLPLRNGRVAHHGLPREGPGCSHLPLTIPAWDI
pIC50: −log10 of the molar value.
Consider the following compounds and their measured pIC50 readings.
reported_metric: pIC50

>>> result("CCc1nc(N)ccc1-c1cccc2ccc(-c3cnccc3C)nc12.Cl")
"> 7.00"
>>> result("CCc1nc(N)ccc1-c1cccc2cc3c(nc12)CCC3.Cl")
"> 7.00"
>>> result("CCc1nc(N)ccc1-c1cccc2cccnc12.Cl")
"> 7.00"
>>> result("CCc1nc(N)ccc1-c1c(F)ccc2ccc(=O)[nH]c12.Cl")
"6.00 to 7.00"
>>> result("CCc1nc(N)ccc1-c1c(Cl)ccc2cc(Cl)cnc12")
"> 7.00"
>>> result("CCc1nc(N)ccc1-c1c(F)cc(F)c2cccnc12.Cl")
"> 7.00"
>>> result("CCc1nc(N)ccc1-c1cccc2c1NCC2.Cl")
"6.00 to 7.00"
>>> result("Cl.Nc1ccc(-c2c(F)cc(F)c3cc(F)cnc23)c(N)n1")
"> 7.00"
>>> result("Cl.Nc1ccc(-c2cccc3ccncc23)c(C2CC2)n1")
"6.00 to 7.00"
>>> result("CCc1nc(N)ccc1-c1ccccc1-c1ccc(OC)nc1")
"6.00 to 7.00"
>>> result("CCc1nc(N)ccc1-c1cccc2ccc(C(F)(F)F)nc12.Cl")
"> 7.00"
>>> result("CCc1nc(N)ccc1-c1c(C)sc2ccccc12.Cl")
"6.00 to 7.00"
>>> result("CCc1nc(N)ccc1-c1cc(F)cc2cccnc12.Cl")
"> 7.00"
>>> result("Cl.Nc1ccc(-c2cccc3cc(F)cnc23)c(N)n1")
"> 7.00"
>>> result("CCc1nc(N)ccc1-c1cccc2ccc(C(=O)NC3CCOCC3)nc12.Cl")
"> 7.00"
>>> result("CCc1nc(N)ccc1-c1cccc2ccc(C(=O)N(CC)C(C)C)nc12.Cl")
"> 7.00"
>>> result("CCc1nc(N)ccc1-c1c(F)c(F)cc2cc(F)cnc12.Cl")
"> 7.00"
>>> result("CCc1nc(N)ccc1-c1c(F)ccc2ccc(N3CC4CCC(C3)O4)nc12.Cl")
"> 7.00"
>>> result("CCc1nc(N)ccc1-c1c(F)cc(F)c2cc(Cl)cnc12")
"> 7.00"

From: patent US20220298135A1
